Below, each entry is listed alongside its reported IC50.
- target of assay: VIM-2 (Escherichia coli)
- Construct: made in house; host or cells: E. coli BL21(DE3)
- test description: β-lactamase enzyme inhibition assay, VIM-2 (nitrocefin substrate)
- Format: biochemical
- condition notes: Class B; nitrocefin substrate, 486 nm; read-out: VIM-2
quantity kind: IC50

INSERT INTO assay_data (smiles, target_of_assay, observed_value) VALUES
  ('NCCc1nnnn1CC(=O)N[C@H]1Cc2cccc(C(=O)O)c2OB1O', 'VIM-2 (Escherichia coli)', '< 100 nM'),
  ('NCc1nnn(CC(=O)N[C@H]2Cc3cccc(C(=O)O)c3OB2O)c1I', 'VIM-2 (Escherichia coli)', '< 100 nM'),
  ('NCc1ncn(CC(=O)N[C@H]2Cc3cccc(C(=O)O)c3OB2O)n1', 'VIM-2 (Escherichia coli)', '< 100 nM'),
  ('N#Cc1ncn(CC(=O)N[C@H]2Cc3cccc(C(=O)O)c3OB2O)n1', 'VIM-2 (Escherichia coli)', '100 to 1000 nM'),
  ('NCCc1nnn(CC(=O)N[C@H]2Cc3cccc(C(=O)O)c3OB2O)n1', 'VIM-2 (Escherichia coli)', '100 to 1000 nM'),
  ('NCc1cc(-c2cn(CC(=O)N[C@H]3Cc4cccc(C(=O)O)c4OB3O)nn2)cs1', 'VIM-2 (Escherichia coli)', '100 to 1000 nM'),
  ('Nc1ccc(S(=O)(=O)NCc2cn(CC(=O)N[C@H]3Cc4cccc(C(=O)O)c4OB3O)nn2)cc1', 'VIM-2 (Escherichia coli)', '1000 to 10000 nM'),
  ('CCN(CC)Cc1cn(CC(=O)N[C@H]2Cc3cccc(C(=O)O)c3OB2O)nn1', 'VIM-2 (Escherichia coli)', '100 to 1000 nM');
